B1: FBXO39 (parent)
chain: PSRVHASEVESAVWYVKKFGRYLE

Variants of: B1
PROTOCOL NOTES: protein stability index of a GFP-peptide fusion (GPS, HEK-293T) (PSI 1-6); higher = more stable;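 further: lentivirally expressed fusions sorted by FACS into six bins by GFP to DsRed ratio, PSI derived from sequencing read proportions per bin multiplied by bin number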
APPLIED CONDITIONS: c terminus: a fixed tail appended
Is protein stability index at least 2? Then Fulfilled. If not, Not fulfilled.

QUERY: State whether the measured protein stability index reaches 2, counting equality as reaching it, for "R21L"
RESULT: Not fulfilled

QUERY: State whether the measured protein stability index reaches 2, counting equality as reaching it, for "K17R"
RESULT: Fulfilled

QUERY: State whether the measured protein stability index reaches 2, counting equality as reaching it, for "W14C"
RESULT: Fulfilled

QUERY: State whether the measured protein stability index reaches 2, counting equality as reaching it, for "K18M"
RESULT: Not fulfilled

QUERY: State whether the measured protein stability index reaches 2, counting equality as reaching it, for "E8S"
RESULT: Not fulfilled

QUERY: State whether the measured protein stability index reaches 2, counting equality as reaching it, for "Y15T"
RESULT: Fulfilled

QUERY: State whether the measured protein stability index reaches 2, counting equality as reaching it, for "E24V"
RESULT: Not fulfilled

QUERY: State whether the measured protein stability index reaches 2, counting equality as reaching it, for "G20M"
RESULT: Fulfilled

QUERY: State whether the measured protein stability index reaches 2, counting equality as reaching it, for "S2D"
RESULT: Fulfilled

QUERY: State whether the measured protein stability index reaches 2, counting equality as reaching it, for "V13S"
RESULT: Fulfilled

QUERY: State whether the measured protein stability index reaches 2, counting equality as reaching it, for "W14A"
RESULT: Fulfilled

QUERY: State whether the measured protein stability index reaches 2, counting equality as reaching it, for "H5R"
RESULT: Not fulfilled

QUERY: State whether the measured protein stability index reaches 2, counting equality as reaching it, for "Y22R"
RESULT: Fulfilled

QUERY: State whether the measured protein stability index reaches 2, counting equality as reaching it, for "V4G"
RESULT: Fulfilled

QUERY: State whether the measured protein stability index reaches 2, counting equality as reaching it, for "V4S"
RESULT: Not fulfilled

QUERY: State whether the measured protein stability index reaches 2, counting equality as reaching it, for "G20D"
RESULT: Fulfilled

QUERY: State whether the measured protein stability index reaches 2, counting equality as reaching it, for "V9Q"
RESULT: Fulfilled

QUERY: State whether the measured protein stability index reaches 2, counting equality as reaching it, for "E24C"
RESULT: Fulfilled

QUERY: State whether the measured protein stability index reaches 2, counting equality as reaching it, for "V9S"
RESULT: Fulfilled

QUERY: State whether the measured protein stability index reaches 2, counting equality as reaching it, for "W14P"
RESULT: Fulfilled
